Every entry's value here was drawn from patent US20120172295A1.

Let's look at some binders and their measured log10 EC50.
- studySystem: glucagon receptor (UniProt P47871 26-477, limits assumed)
- Sequence (P47871 26-477 limits assumed): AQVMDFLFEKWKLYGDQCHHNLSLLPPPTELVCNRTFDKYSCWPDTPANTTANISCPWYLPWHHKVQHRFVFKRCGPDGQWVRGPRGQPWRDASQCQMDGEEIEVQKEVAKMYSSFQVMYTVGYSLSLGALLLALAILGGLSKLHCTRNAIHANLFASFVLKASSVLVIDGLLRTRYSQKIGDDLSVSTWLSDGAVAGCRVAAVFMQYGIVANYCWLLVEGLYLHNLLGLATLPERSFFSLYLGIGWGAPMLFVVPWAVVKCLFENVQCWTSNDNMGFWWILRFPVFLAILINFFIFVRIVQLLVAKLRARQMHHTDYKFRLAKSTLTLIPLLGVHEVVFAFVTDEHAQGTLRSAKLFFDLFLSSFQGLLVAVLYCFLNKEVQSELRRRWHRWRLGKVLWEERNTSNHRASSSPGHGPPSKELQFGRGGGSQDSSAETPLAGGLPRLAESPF
- method: cell-based or functional assay
Starred links: 1 amine or outer side, 2 acyl side, 3 side chain; linkers in the order of their positions; H or OH if unused. Non-standard residues stand in square brackets, D forms with d. Groups on a side chain read outwards from the residue. No end group written: not given here. *: point of attachment. γGlu = O=C(O)[C@H](CCC(=O)[*:2])N[*:1]; Palmitoyl = CCCCCCCCCCCCCCCC(=O)*; Myristoyl = CCCCCCCCCCCCCC(=O)*; Aib = CC(C)(N)C(=O)O; Ahx = NCCCCCC(=O)O
In our notation, the value equals log10 of EC50 in nM.

Below, each entry is followed by its recorded log10 EC50 result.
binder | endpointLabel | experimentalResult
H[Aib]QGTFTSDK([Pro-Pro-Palmitoyl])SKYLD[Aib]RRAQDFVQWLMNT-NH2 [Peptide 87 (SEQ ID NO: 569)] | log10 EC50 | -1.77
H[Aib]QGTFTSDK([Ahx-Palmitoyl])SKYLD[Aib]RRAQDFVQWLMNT-NH2 [Peptide 85 (SEQ ID NO: 567)] | log10 EC50 | -2.00
H[Aib]QGTFTSDK([γGlu-γGlu-Palmitoyl])SKYLD[Aib]RRAQDFVC(PEG 40 kDa)WLMNT-NH2 [Peptide 80* (SEQ ID NO: 576)] | log10 EC50 | -0.97
H[Aib]QGTFTSDK([Ala-Ala-Myristoyl])SKYLD[Aib]RRAQDFVC(PEG 40 kDa)WLMNT-NH2 [Peptide 81* (SEQ ID NO: 573)] | log10 EC50 | -0.22

Could you now consider this next binder?
Exam item: Any idea what log10 EC50 was measured for H[Aib]QGTFTSDK(Myristoyl)SKYLD[Aib]RRAQDFVC(PEG 40 kDa)WLMNT-NH2 [Peptide 77* (SEQ ID NO: 570)] ?
Marked response: 1.34
